assay: Primary qHTS for delayed death inhibitors of the malarial parasite plastid, 96 hour incubation; note: potency is the fitted concentration of half-maximal effect; details: P. falciparum luciferase reporter growth; series mostly up to 28.7 µM
The whole screen tested about 320,000 compounds, of which about 22,000 (6.9%) were called active. Not shown: some 27% with an inconclusive outcome. For the sample, actives were picked, then their nearest neighbours and some compounds at random.
quantity: Potency

Example cases with answers are listed next.
>>> observed_result("COc1ccccc1C(=O)NC(CCSC)C(=O)NNC(=O)c1ccccc1C (stereo unspecified)")
"inactive"
>>> observed_result("O=C(COC(=O)Cn1cnc2ccccc2c1=O)NCc1ccccc1Cl")
"inactive"
>>> observed_result("COc1ccccc1C(=O)NC(CCSC)C(=O)N1CCN(C/C=C/c2ccccc2)CC1 (stereo unspecified)")
"11.7 µM (active)"
>>> observed_result("CSCCC(NC(=O)c1ccccc1)C(=O)N1CCCCCCC1 (stereo unspecified)")
"inactive"
>>> observed_result("O=C(c1cccc(Cl)c1)N1CCN(Cc2ccccc2)CC1")
"inactive"

Please examine the following record next.
Q: Quick one: Potency of COc1ccccc1C(=O)NC(CCSC)C(=O)N1CCN(C(C)=O)CC1 (stereo unspecified) ?
Ans: inactive
